# assay system: T1, Bcl-w
# T1 chain: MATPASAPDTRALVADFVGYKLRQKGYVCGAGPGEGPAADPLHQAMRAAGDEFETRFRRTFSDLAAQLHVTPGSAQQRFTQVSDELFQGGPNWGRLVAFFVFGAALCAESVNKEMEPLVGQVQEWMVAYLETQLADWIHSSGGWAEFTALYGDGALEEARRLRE
# assay comment: competition phage ELISA
Simple rule here: IC50 less than 60 nM is criterion met, otherwise criterion not met.

Some entries whose results are on file:
| binder | qualitative label |
| --- | --- |
| QEDIIRNIARALAQVGDSMDRSIPPG (M13 phage display: FLAG-26mer-GGGT-g3(249-406)) [Bid BH3 H11A, phage-displayed] | criterion met |
| QEDIIRAIARHLAQVGDSMDRSIPPG (M13 phage display: FLAG-26mer-GGGT-g3(249-406)) [Bid BH3 N7A, phage-displayed] | criterion met |
| QEDIIRNAARHLAQVGDSMDRSIPPG (M13 phage display: FLAG-26mer-GGGT-g3(249-406)) [Bid BH3 I8A, phage-displayed] | criterion not met |
| QEDIIRNIARHLAQVGDSMDRAIPPG (M13 phage display: FLAG-26mer-GGGT-g3(249-406)) [Bid BH3 S22A, phage-displayed] | criterion met |
| QEDIIRNIARHAAQVGDSMDRSIPPG (M13 phage display: FLAG-26mer-GGGT-g3(249-406)) [Bid BH3 L12A, phage-displayed] | criterion not met |

Now turn to the next binder.
Q: Check if IC50 falls below 60 nM for QEDIIRNIARHLAQVGDSMDRSIPPE (M13 phage display: FLAG-26mer-GGGT-g3(249-406)) [Bid BH3 G26E, phage-displayed] .
Result: criterion met

From: patent US20090048164A1
